Target: T1, human PD-L1 (human, UniProt Q9NZQ7 19-290)
T1 construct: whole, on cells; also called hPD-L1; PD-L1 antigen on MDA-MB-231 cells
T1 sequence (Q9NZQ7 19-290): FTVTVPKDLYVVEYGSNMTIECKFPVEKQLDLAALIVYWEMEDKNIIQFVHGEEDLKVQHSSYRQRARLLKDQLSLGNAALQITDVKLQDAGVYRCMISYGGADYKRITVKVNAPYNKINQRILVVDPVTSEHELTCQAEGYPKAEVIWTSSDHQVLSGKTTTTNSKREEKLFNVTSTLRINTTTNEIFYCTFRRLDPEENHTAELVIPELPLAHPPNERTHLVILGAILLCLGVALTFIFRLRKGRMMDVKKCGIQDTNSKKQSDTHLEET
Test: FACS on PD-L1-expressing cells, similar method
Please go through the items and note down their pEC50.
Note on units: pEC50 is unitless, being -log10 of a concentration expressed in mol/L.

Query :: Please give the documented pEC50 of antibody Ahu (VHH, Humanized anti-PD-L1 nanobody) VHH: QVQLVESGGGVVQPGGSLRLSCAASGRSFSSSGMGWFRQAPGKGREFVATINSSGGDTYYRDSVEGRFTTSRDNSKNTMYLQMNSLRAEDTAVYYCAAKEGGGPSSIPAIYDYWGQGTLVTVSS
Result :: 10.29

Query :: Please give the documented pEC50 of antibody D1hu (VHH, Humanized anti-PD-L1 nanobody) VHH: EVQLVESGGGLVQPGGSLRLSCTASGRDFLTYGMGWFRQAPGKELEFVASINWSGSMTYYADSVKGRFTISRDNAKNTVYLQMNSLRAEDTAVYICAARRGAVTYASSNEYEHWGQGTQVTVSS
Result :: 9.74

Query :: Please give the documented pEC50 of antibody Bhu (VHH, Humanized anti-PD-L1 nanobody) VHH: QVQLVESGGGVVQPGGSLRLSCAASGFTFSSYAMRWVRQAPGKGLEWVAGINTGSEIVVYANSVRGRFTISRDNSRDTLYLQMNSLRAEDTAVYYCATGLVSAEHDGIWGQGTQVTVSS
Result :: 9.74

Query :: Please give the documented pEC50 of antibody D2hu (VHH, Humanized anti-PD-L1 nanobody) VHH: EVQLVESGGGLVQPGGSLRLSCAASGRDFLTYGMGWFRQAPGKGLEFVASINWSGSMTYYADSVKGRFTISRDNAKNSVYLQMNSLRAEDTAVYICAARRGAVTYASSNEYEHWGQGTQVTVSS
Result :: 9.54
